Test system: ME-180 (Cervical Carcinoma)
experiment summary: Bliss excess, mean over the matrix (fraction); higher = more synergy;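 note: after 72 h of two-drug dosing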
Consider the following compounds; for each one, report its Bliss excess.
Give your answer as a number; write no unit.

Test system ME-180 (Cervical Carcinoma); read-out Bliss excess; what value for Cc1c2c(nn1C)CSCc1cc(n(C)n1)CSc1cc(c3ccccc3c1)OCCCc1c(C(=O)O)n(C)c3c-2c(Cl)ccc13 [AZD5991] + Nc1ccn([C@@H]2O[C@H](CO)[C@@H](O)C2(F)F)c(=O)n1 [Gemcitabine] (first compound max 1 µM, 7x7, partner max 0.3 µM) ?
-0.036

Also COc1cc2ncnc(Nc3ccc(F)c(Cl)c3)c2cc1OCCCN1CCOCC1 [Gefitinib] + CC(C)n1c(=O)n(C)c2cnc3cc(F)c(-c4ccc(OCCCN5CCCCC5)nc4)cc3c21 [AZD1390] (first compound max 10 µM, 7x7, partner max 0.3 µM) , if possible.
-0.0413

---

System: MDA-MB-453 (Breast Carcinoma)
experiment summary: Bliss excess, mean over the matrix (fraction); higher = more synergy
Assign Bliss excess to each entry below.
Please give only the number in your answer, with no unit.

# value lookup — system MDA-MB-453 (Breast Carcinoma), readout Bliss excess, item C[C@@H](Nc1cc(F)cc(F)c1)c1cc(C(=O)N(C)C)cc2c(=O)cc(N3CCOCC3)oc12 [AZD8186] + C1CN(CCC1(C(=O)N[C@@H](CCO)C2=CC=C(C=C2)Cl)N)C3=NC=NC4=C3C=CN4 [AZD5363] (first compound max 10 µM, 7x7, partner max 10 µM)
0.0219

Same question for Cc1cc2ncnn2cc1Nc1ncc2c(n1)n(C1CCOCC1)c(=O)n2C [AZD7648] + CCN(CCO)CCCOc1ccc2c(Nc3cc(CC(=O)Nc4cccc(F)c4)[nH]n3)ncnc2c1 [AZD2811] (first compound max 10 µM, 7x7, partner max 1 µM) please.
-0.0013

Try this compound too: Cn1cnc2c(F)c(Nc3ccc(Br)cc3Cl)c(C(=O)NOCCO)cc21 [Selumetinib] + C[C@@H]1COCCN1C2=NC(=NC(=C2)C3(CC3)[S@](=N)(=O)C)C4=C5C=CNC5=NC=C4 [AZD6738] (first compound max 10 µM, 7x7, partner max 10 µM)
-0.05

Same lookup for CN(C)CCCOc1ccc(-c2ccc3ncc4c(c3c2)n(C2CCOCC2)c(=O)n4C)cn1 [AZD0156] + O=C(c1cc(Cc2n[nH]c(=O)c3ccccc23)ccc1F)N1CCN(C(=O)C2CC2)CC1 [Olaparib] (first compound max 3 µM, partner max 3 µM) , please.
-0.0266

---

For each entry below, report its Bliss excess value.
Tested on: HAL-01 (B-Lymphoblastic Leukemia)
experiment summary: Bliss excess, mean over the matrix (fraction); higher = more synergy
The reply should be a number, written without any unit.

Returns the measured Bliss excess for the input compound. Input: Cc1c2c(nn1C)CSCc1cc(n(C)n1)CSc1cc(c3ccccc3c1)OCCCc1c(C(=O)O)n(C)c3c-2c(Cl)ccc13 [AZD5991] + CS(=O)(=O)CCNCc1ccc(-c2ccc3ncnc(Nc4ccc(OCc5cccc(F)c5)c(Cl)c4)c3c2)o1 [Lapatinib] (first compound max 1 µM, 7x7, partner max 10 µM)
0.162

Let us now turn to O=C(c1cc(Cc2n[nH]c(=O)c3ccccc23)ccc1F)N1CCN(C(=O)C2CC2)CC1 [Olaparib] + CN(CC[C@H](CSC1=CC=CC=C1)NC2=C(C=C(C=C2)S(=O)(=O)NC(=O)C3=CC=C(C=C3)N4CCC(CC4)[C@H](C5=CC=CC=C5C6=CC=C(C=C6)Cl)O)S(=O)(=O)C(F)(F)F)CCO [AZD4320] (first compound max 10 µM, 7x7, partner max 1 µM)
0.0353

Ok, now CN(CCO)CC[C@H](CSc1ccccc1)Nc1ccc(S(=O)(=O)NC(=O)c2ccc(N3CCC([C@@H](O)c4ccccc4-c4ccc(Cl)cc4)CC3)cc2)cc1S(=O)(=O)C(F)(F)F [AZD4320] + C[C@@H](Nc1cc(F)cc(F)c1)c1cc(C(=O)N(C)C)cc2c(=O)cc(N3CCOCC3)oc12 [AZD8186] (first compound max 1 µM, 7x7, partner max 3 µM)
0.0337

Also Cc1c2c(nn1C)CSCc1cc(n(C)n1)CSc1cc(c3ccccc3c1)OCCCc1c(C(=O)O)n(C)c3c-2c(Cl)ccc13 [AZD5991] + CCN(CCO)CCCOc1ccc2c(Nc3cc(CC(=O)Nc4cccc(F)c4)[nH]n3)ncnc2c1 [AZD2811] (first compound max 1 µM, 7x7, partner max 1 µM) ?
0.0012

Then what about the compound Cc1c2c(nn1C)CSCc1cc(n(C)n1)CSc1cc(c3ccccc3c1)OCCCc1c(C(=O)O)n(C)c3c-2c(Cl)ccc13 [AZD5991] + C[C@@H](Nc1cc(F)cc(F)c1)c1cc(C(=O)N(C)C)cc2c(=O)cc(N3CCOCC3)oc12 [AZD8186] (first compound max 1 µM, 7x7, partner max 3 µM) ?
0.015

What do we get for CC(=O)c1c(C)c2cnc(Nc3ccc(N4CCNCC4)cn3)nc2n(C2CCCC2)c1=O [Palbociclib] + Cc1c2c(nn1C)CSCc1cc(n(C)n1)CSc1cc(c3ccccc3c1)OCCCc1c(C(=O)O)n(C)c3c-2c(Cl)ccc13 [AZD5991] (first compound max 10 µM, 7x7, partner max 1 µM) ?
0.0597

Now this one: Cc1nc(-c2cn3c(n2)-c2ccc(-c4cnn(C(C)(C)C(N)=O)c4)cc2OCC3)n(C(C)C)n1 [Taselisib] + O=C(Nc1ccc2[nH]nc(-c3ccncc3)c2c1)[C@@H]1CCN(CC(=O)N2CCN(c3ccc(-c4ncccn4)cc3)CC2)C1 [SCH772984] (first compound max 10 µM, 7x7, partner max 5 µM)
-0.0711

Consider next the compound CN(CCO)CC[C@H](CSc1ccccc1)Nc1ccc(S(=O)(=O)NC(=O)c2ccc(N3CCC([C@@H](O)c4ccccc4-c4ccc(Cl)cc4)CC3)cc2)cc1S(=O)(=O)C(F)(F)F [AZD4320] + CCN(CCO)CCCOc1ccc2c(Nc3cc(CC(=O)Nc4cccc(F)c4)[nH]n3)ncnc2c1 [AZD2811] (first compound max 1 µM, 7x7, partner max 1 µM) in the same way.
-0.0085

Next entry: NC1(C(=O)N[C@@H](CCO)c2ccc(Cl)cc2)CCN(c2ncnc3[nH]ccc23)CC1 [Capivasertib] + Cn1cnc2c(F)c(Nc3ccc(Br)cc3Cl)c(C(=O)NOCCO)cc21 [Selumetinib] (first compound max 10 µM, 7x7, partner max 10 µM)
0.0548

Another compound: N#Cc1cnc(Nc2cc(NC[C@H]3CNCCO3)c(C(F)(F)F)cn2)cn1 [SRA737] + O=c1[nH]cc(F)c(=O)[nH]1 [5-Fluorouracil] (first compound max 10 µM, 7x7, partner max 20 µM)
-0.0463

Moving on to Cc1c2c(nn1C)CSCc1cc(n(C)n1)CSc1cc(c3ccccc3c1)OCCCc1c(C(=O)O)n(C)c3c-2c(Cl)ccc13 [AZD5991] + CC(=O)O[C@H]1C(=O)[C@@]2(C)[C@H]([C@H](OC(=O)c3ccccc3)[C@]3(O)C[C@H](OC(=O)[C@H](O)[C@@H](NC(=O)c4ccccc4)c4ccccc4)C(C)=C1C3(C)C)[C@]1(OC(C)=O)CO[C@@H]1C[C@@H]2O [Paclitaxel] (first compound max 1 µM, 7x7, partner max 3 µM)
-0.0179

Now consider C[C@@H](Oc1cc(-c2cnn(C3CCNCC3)c2)cnc1N)c1c(Cl)ccc(F)c1Cl [Crizotinib] + CC1=C(C(=CC=C1)Cl)NC(=O)C2=CN=C(S2)NC3=CC(=NC(=N3)C)N4CCN(CC4)CCO [Dasatinib] (first compound max 10 µM, 7x7, partner max 2 µM) and answer again.
-0.0172

The measured values listed here are drawn from the supplement of paper PMC11061612.
